Biological target: PDK1 enzyme (Homo sapiens, UniProt O15530)
Sequence (O15530 whole entry): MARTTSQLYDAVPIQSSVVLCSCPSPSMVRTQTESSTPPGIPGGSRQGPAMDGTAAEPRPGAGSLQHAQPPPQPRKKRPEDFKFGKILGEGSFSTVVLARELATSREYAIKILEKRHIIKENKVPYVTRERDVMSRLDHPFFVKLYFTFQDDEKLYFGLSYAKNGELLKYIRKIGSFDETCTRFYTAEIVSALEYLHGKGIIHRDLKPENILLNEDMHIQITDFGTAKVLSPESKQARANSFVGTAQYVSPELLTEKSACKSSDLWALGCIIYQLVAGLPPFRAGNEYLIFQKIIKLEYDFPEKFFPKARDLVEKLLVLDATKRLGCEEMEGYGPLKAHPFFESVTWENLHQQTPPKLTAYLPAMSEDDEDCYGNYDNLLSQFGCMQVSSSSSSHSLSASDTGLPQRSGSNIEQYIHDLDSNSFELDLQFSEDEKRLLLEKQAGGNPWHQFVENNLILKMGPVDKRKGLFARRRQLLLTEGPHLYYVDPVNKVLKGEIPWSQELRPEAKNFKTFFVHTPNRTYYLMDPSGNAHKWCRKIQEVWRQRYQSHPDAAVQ
Test: PDK1 kinase inhibition assay (33P phosphorylation of synthetic peptide, filter plate)
Format: biochemical
Settings: 0.01 mM ATP, 60 min at 30° C.; read-out: PDK1 IC50
pIC50: −log10 of the molar value.
Known pIC50 of a selection of compounds

Recorded pIC50, per entry:
INSERT INTO assay_data (compound, result) VALUES
  ('CCc1cnn2c(Nc3ccc(S(C)(=O)=O)cc3)cc(OCC(C)C)nc12 [Example 44]', 4.10),
  ('CN(C)S(=O)(=O)c1ccc(Nc2cc(Cl)nc3c(-c4ccsc4)cnn23)cc1 [Example 156]', 5.00),
  ('COCCN(C)S(=O)(=O)c1ccc(Nc2cc(Cl)nc3c(C(C)C)cnn23)cc1 [Example 96]', '< 3.70');

Fill blank: measured pIC50 of the compound Oc1cccc(-c2cc(Nc3ccccc3)n3nccc3n2)c1 [Example 6] is ____.
< 3.70

Fill blank: measured pIC50 of the compound CC(C)c1cnn2c(Nc3ccc(S(=O)(=O)N(C)C)cc3)cc(N3CCCC(C(=O)O)C3)nc12 (centres unmarked) [Example 82] is ____.
< 3.70

---

Target: GST-Chk1 enzyme (Homo sapiens, UniProt O14757)
Assay: Chk1 kinase inhibition assay (33P phosphorylation of Chktide, filter plate)
Assay type: biochemical
Details: 0.01 mM ATP, 11 nM GST-Chk1, 40 minutes at 30° C.; read-out: Chk1 IC50
Procedure: The assay mixture containing the inhibitor and Chk1 enzyme was mixed together in a microtiter plate in a final volume of 50 μl and incubated for 40 minutes at 30° C. The reaction was stopped by adding 50 μl of 50 mM phosphoric acid. […] The filtration plate was dried for 10 min at 65° C., scintillant added and phosphorylated peptide quantified in a scintillation counter (Trilux, PerkinElmer)
pIC50: −log10 of the molar value.
property-label: pIC50

INSERT INTO results (compound, measured_on, result) VALUES
  ('CNS(=O)(=O)c1ccc(Nc2cc(N[C@H]3CC[C@H](N)CC3)nc3c(C(C)C)cnn23)cc1 [Example 61]', 'GST-Chk1 enzyme (Homo sapiens, UniProt O14757)', 5.18),
  ('CNS(=O)(=O)c1ccc(Nc2cc(Cl)nc3c(C(C)C)cnn23)cc1', 'GST-Chk1 enzyme (Homo sapiens, UniProt O14757)', '< 3.70'),
  ('CC(C)c1cnn2c(Nc3ccc(S(=O)(=O)N(C)C)cc3)cc(N(C)c3ccncc3)nc12', 'GST-Chk1 enzyme (Homo sapiens, UniProt O14757)', '< 3.70');

Fill blank: measured pIC50 of the compound CC(C)c1cnn2c(Nc3ccc(S(=O)(=O)N(C)C)cc3)cc(N3CCCC(CN(C)C)C3)nc12 (stereo not shown) is ____.
< 3.70

Fill blank: measured pIC50 of the compound CC(C)c1cnn2c(Nc3ccc(S(=O)(=O)N(C)C)cc3)cc(OCC3CCCN3C)nc12 (stereo not shown) is ____.
< 3.70

Fill blank: measured pIC50 of the compound CC(C)c1cnn2c(Nc3ccc(S(=O)(=O)N4CCC(O)CC4)cc3)cc(Cl)nc12 is ____.
< 3.70

---

Biological target: GST-Chk1 enzyme (Homo sapiens)
Sequence (O14757 1-476): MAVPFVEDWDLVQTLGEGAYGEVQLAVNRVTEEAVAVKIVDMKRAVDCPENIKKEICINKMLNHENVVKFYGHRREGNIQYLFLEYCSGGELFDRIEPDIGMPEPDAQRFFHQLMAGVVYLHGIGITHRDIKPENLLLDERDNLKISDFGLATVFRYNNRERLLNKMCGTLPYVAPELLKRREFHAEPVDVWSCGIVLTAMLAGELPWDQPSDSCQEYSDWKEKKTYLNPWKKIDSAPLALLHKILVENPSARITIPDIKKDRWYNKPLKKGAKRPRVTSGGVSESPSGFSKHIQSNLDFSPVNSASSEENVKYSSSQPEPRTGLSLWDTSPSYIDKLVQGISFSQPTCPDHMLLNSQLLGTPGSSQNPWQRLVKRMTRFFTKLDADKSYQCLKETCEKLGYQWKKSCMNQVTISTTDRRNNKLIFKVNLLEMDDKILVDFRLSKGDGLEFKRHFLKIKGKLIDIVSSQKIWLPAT
Test: Chk1 kinase inhibition assay (33P phosphorylation of Chktide, filter plate)
Format: biochemical
Details: 0.01 mM ATP, 11 nM GST-Chk1, 40 minutes at 30° C.; read-out: Chk1 IC50
property-label: IC50

INSERT INTO assay_data (compound, result) VALUES
  ('O=S(=O)(Nc1nccs1)c1ccc(Nc2cc(OC3CCCCC3)nc3ccnn23)cc1 [Example 14]', '> 200 µM'),
  ('CC(C)c1cnn2c(Nc3ccc(S(=O)(=O)N(C)C)cc3)cc(NC3CCN(C)CC3)nc12 [Example 69]', '19.3 µM'),
  ('CC(C)c1cnn2c(Nc3ccc(S(=O)(=O)N(C)C)cc3)cc(N3CCC(C(N)=O)CC3)nc12 [Example 73]', '> 200 µM');

Fill blank: measured IC50 of the compound NS(=O)(=O)c1ccc(Nc2ccnc3ccnn23)cc1 [Example 20] is ____.
> 200 µM

---

Target: UniProt:O15530
Assay: PDK1 kinase inhibition assay (33P phosphorylation of synthetic peptide, filter plate)
Type: biochemical
Conditions: 0.01 mM ATP, 60 min at 30° C.; read-out: PDK1 IC50
property-label: IC50

Recorded IC50, per entry:
INSERT INTO assay_data (compound, measured_on, result) VALUES
  ('CC(C)c1cnn2c(Nc3ccc(S(=O)(=O)N(C)C)cc3)cc(N[C@H]3CC[C@H](NS(C)(=O)=O)CC3)nc12', 'UniProt:O15530', '34.4 µM'),
  ('N[C@H]1CC[C@@H](Nc2cc(Nc3ccc(S(=O)(=O)N4CCCC4)cc3)n3ncc(Br)c3n2)CC1', 'UniProt:O15530', '2.58 µM'),
  ('O=S(=O)(c1ccc(Nc2cc(Cl)nc3ccnn23)cc1)N1CCOCC1', 'UniProt:O15530', '> 200 µM'),
  ('NS(=O)(=O)c1ccc(Nc2cc(Cl)nc3ccnn23)cc1', 'UniProt:O15530', '> 200 µM'),
  ('CC(C)c1cnn2c(Nc3ccc(S(C)(=O)=O)nc3)cc(Cl)nc12', 'UniProt:O15530', '> 200 µM');

Fill blank: measured IC50 of the compound CCc1cnn2c(Nc3ccc(S(C)(=O)=O)cc3)cc(N(C)C)nc12 is ____.
> 200 µM

Fill blank: measured IC50 of the compound CC(C)c1cnn2c(Nc3ccc(S(=O)(=O)N(C)C)cc3)cc(NCCN)nc12 is ____.
> 200 µM

Fill blank: measured IC50 of the compound CCCN(CCC)[C@H]1CC[C@H](Nc2cc(Nc3ccc(S(=O)(=O)N(C)C)cc3)n3ncc(C(C)C)c3n2)CC1 is ____.
19.9 µM

Fill blank: measured IC50 of the compound CC(C)c1cnn2c(Nc3ccc(S(=O)(=O)N(C)C)cc3)cc(N3CCC(CN)CC3)nc12 is ____.
64.2 µM

Fill blank: measured IC50 of the compound CC(C)c1cnn2c(Nc3ccc(S(C)(=O)=O)cc3)cc(N(C)CCN(C)C)nc12 is ____.
> 200 µM

Fill blank: measured IC50 of the compound Cc1cccc(-c2cc(Nc3ccc(S(=O)(=O)N4CCOCC4)cc3)n3nccc3n2)c1 is ____.
> 200 µM

Fill blank: measured IC50 of the compound CC(C)COc1cc(Nc2ccc(S(C)(=O)=O)cc2)n2ncc(C(C)C)c2n1 is ____.
> 200 µM

Fill blank: measured IC50 of the compound CC(C)c1cnn2c(Nc3ccc(S(=O)(=O)N(C)C)cc3)cc(N3CCCC(CO)C3)nc12 (centres unmarked) is ____.
> 200 µM

Fill blank: measured IC50 of the compound CC(C)c1cnn2c(Nc3ccc(S(=O)(=O)N(C)C)cc3)cc(CN3CCC(N)CC3)nc12 is ____.
72 µM

Fill blank: measured IC50 of the compound CC(C)c1cnn2c(Nc3ccc(S(N)(=O)=O)cc3)cc(Cl)nc12 is ____.
> 200 µM

Fill blank: measured IC50 of the compound CC(C)c1cnn2c(Nc3ccc(S(C)(=O)=O)cc3)cc(OCCN(C)C)nc12 is ____.
> 200 µM

Fill blank: measured IC50 of the compound O=S(=O)(Nc1nccs1)c1ccc(Nc2cc(Cl)nc3ccnn23)cc1 is ____.
> 200 µM

---

Target: UniProt:O14757
Experiment: Chk1 kinase inhibition assay (33P phosphorylation of Chktide, filter plate)
Type: biochemical
Conditions: 0.01 mM ATP, 11 nM GST-Chk1, 40 minutes at 30° C.; read-out: Chk1 IC50
property-label: IC50 (µM)

INSERT INTO assay_data (query_smiles, measured_number) VALUES
  ('N[C@H]1CC[C@@H](Nc2cc(Nc3ccc(S(=O)(=O)N4CCCC4)cc3)n3ncc(Br)c3n2)CC1', 0.07);

A: CC(C)c1cnn2c(Nc3ccc(S(=O)(=O)N(C)C)cc3)cc(N3CCC(CN)CC3)nc12
B: CC(C)c1cnn2c(Nc3ccc(S(=O)(=O)NCCN(C)C)cc3)cc(OC3CCCCC3)nc12
For this pair, A and B , which shows a numerically higher IC50? Refer to your chosen item by its label in the answer.
A
